Where these numbers come from: PubChem BioAssay AID493084

Target: Thyrotropin-releasing hormone receptor (Homo sapiens) (UniProt P34981)
Sequence (P34981 whole entry, looked up): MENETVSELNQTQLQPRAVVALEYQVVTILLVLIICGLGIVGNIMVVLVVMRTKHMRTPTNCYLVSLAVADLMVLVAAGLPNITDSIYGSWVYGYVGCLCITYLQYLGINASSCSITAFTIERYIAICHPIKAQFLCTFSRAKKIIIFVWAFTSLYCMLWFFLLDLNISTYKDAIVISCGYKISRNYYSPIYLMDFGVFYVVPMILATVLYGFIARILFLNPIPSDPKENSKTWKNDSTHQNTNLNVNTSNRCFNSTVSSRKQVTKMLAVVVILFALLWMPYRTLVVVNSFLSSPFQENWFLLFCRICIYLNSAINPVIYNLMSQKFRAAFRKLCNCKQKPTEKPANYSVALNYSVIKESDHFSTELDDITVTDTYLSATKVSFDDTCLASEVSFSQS
Assay: qHTS for Small Molecule Agonists and Allosteric Enhancers of Human TRH Receptor: Primary Screen for Agonists. Further: 0% is about no effect.
Settings: TRHR cells, calcium flux fluo-8, FDSS agonist mode; at 2 µM; hits give high values
Method: NIH Chemical Genomics Center [NCGC] NIH Molecular Libraries Probe Centers Network [MLPCN] […] For the HTS assay freshly prepared cells are plated at a density of 2000/well in 3 ul of complete DMEM medium containing 10% serum in 1536-well plates and cultured over night at 37 C in a humidified incubator with 5% CO2. […] For the assay, assay plates were loaded into the FDSS kinetic plate reader. […]
The whole screen tested about 360,000 compounds, of which about 650 (0.18%) were called active. Shown is part of a subset that was picked to be rich in actives.
# maps each entry to its activation
Give the value, in units of %, as a plain number.

**Q:** Endpoint output: activation of N#CN1CCC(NC(=O)c2ccc(F)cc2)CC1 . Value?
**A:** 1.13

**Q:** Another: Cc1ccc(CNC(=O)CCNS(=O)(=O)c2ccc3c(c2)oc(=O)n3C)cc1
**A:** -0.309

**Q:** Another: CCOC(=O)c1cc(-c2ccc(OC)c(S(=O)(=O)Nc3ccc(OC)cc3OC)c2)on1
**A:** 1.19

**Q:** Another: CCN(CCCNC(=O)Cn1ncc2c([nH]c3ccccc32)c1=O)c1cccc(C)c1
**A:** -0.233

**Q:** Another: Nc1c(C(=O)c2cccs2)sc2nsc(SCCN3CCCCC3)c12
**A:** 99.5

Shifting focus to the molecule that follows.
**Q:** Endpoint output: activation of Cc1ccc2nc(-c3ccc(C)c(NC(=O)Cc4ccccc4)c3)oc2c1 . Value?
**A:** -0.54

* * *

# maps each entry to its activation
Target: Thyrotropin-releasing hormone receptor (Homo sapiens) (UniProt P34981)
Test: qHTS for Small Molecule Agonists and Allosteric Enhancers of Human TRH Receptor: Primary Screen for Agonists. Further: 0% is about no effect.
Conditions: TRHR cells, calcium flux fluo-8, FDSS agonist mode; at 2 µM; hits give high values
About 650 (0.18%) of roughly 360,000 compounds were called active. Only a selection was taken, and actives are over-represented in it overall.
Give the value, in units of %, as a plain number.

**Q:** Endpoint output: activation of Cc1ccc(C)c(Cn2c(=O)n(CCC(=O)NCc3ccc4c(c3)OCO4)c(=O)c3sccc32)c1 . Value?
**A:** -0.659

**Q:** Another: CCCNC(=O)c1ccc2c(c1)ncn2-c1ccc(C)cc1C
**A:** -0.34

* * *

# maps each entry to its activation
Biological target: Thyrotropin-releasing hormone receptor (Homo sapiens)
Assay: qHTS for Small Molecule Agonists and Allosteric Enhancers of Human TRH Receptor: Primary Screen for Agonists. Further: 0% is about no effect.
Conditions: TRHR cells, calcium flux fluo-8, FDSS agonist mode; at 2 µM; hits give high values
In all, about 360,000 compounds went through this assay and about 650 (0.18%) were called active. For the sample, actives were picked, then their nearest neighbours and some compounds at random.
Give the value, in units of %, as a plain number.

**Q:** Can you look up activation on Thyrotropin-releasing hormone receptor (Homo sapiens) for CCCN(CCC)C(=O)C1CCCN(c2ncnc3c2nc2n3CCCCC2)C1 (stereo not given) ?
**A:** -0.956

**Q:** Another: Cc1c(C)n(Cc2ccc(Cl)cc2)c2ccc(C(=O)NCCc3ccc(S(N)(=O)=O)cc3)cc12
**A:** 0.277

**Q:** Another: O=C(CC(NCc1cccnc1)C(=O)O)Nc1ccc(O)cc1 (stereo not given)
**A:** 0.363

**Q:** Another: CCC(C)Nc1oc(-c2ccc(COc3ccc(Cl)cc3)o2)nc1C#N (stereo not given)
**A:** 0.327

Further cases:
**Q:** Can you look up activation on Thyrotropin-releasing hormone receptor (Homo sapiens) for O=C1NC(=O)C2C1C(c1ccc([N+](=O)[O-])cc1)=NN2Cc1ccccc1 (stereo not given) ?
**A:** 34

* * *

Molecular target: Thyrotropin-releasing hormone receptor (Homo sapiens) (UniProt P34981)
Experiment: qHTS for Small Molecule Agonists and Allosteric Enhancers of Human TRH Receptor: Primary Screen for Agonists. Further: 0% is about no effect.
Conditions: TRHR cells, calcium flux fluo-8, FDSS agonist mode; at 2 µM; hits give high values
The campaign covered roughly 360,000 compounds. About 650 (0.18%) were called active. This excerpt belongs to a sample that is enriched for actives.
Quantity Name: activation (%)
Give the value, in units of %, as a plain number.

Check out these entries, answers already filled in.
**Q:** Endpoint output: activation of COC(=O)C1=C(C)NC2=C(C(=O)c3ccccc32)C1c1ccc(-c2ccc(C(=O)O)cc2)o1 (stereo not given) . Value?
**A:** 46.3

**Q:** Another: COc1cccc(C(=O)c2sc3nc(-c4ccccc4)cc(C(F)(F)F)c3c2N)c1
**A:** 106

**Q:** Another: COc1cccc(C(=O)Nc2ccc(-c3cc(C(F)(F)F)nn3-c3ccccc3)cc2)c1
**A:** 1.81

**Q:** Another: Cc1ccc(C2C3=C(Nc4[nH]n(-c5ccccc5)c(=O)c42)c2ccccc2C3=O)cc1 (stereo not given)
**A:** -0.291

**Q:** Another: COc1ccc(NC(=O)CSc2nc3ccccc3n2CC(=O)N2CCCCC2C)cc1 (stereo not given)
**A:** -0.312

Shifting focus to the compound that follows.
**Q:** Endpoint output: activation of O=C(NCCCO)C(=O)Nc1c2c(nn1-c1ccc(F)cc1)CSC2 . Value?
**A:** -1.01

* * *

Target: Thyrotropin-releasing hormone receptor (Homo sapiens)
Test: qHTS for Small Molecule Agonists and Allosteric Enhancers of Human TRH Receptor: Primary Screen for Agonists. Further: 0% is about no effect.
Conditions: TRHR cells, calcium flux fluo-8, FDSS agonist mode; at 2 µM; hits give high values
In all, about 360,000 compounds went through this assay and about 650 (0.18%) were called active. The full list was thinned out, with actives kept by preference.
Quantity Name: activation (%)
Give the value, in units of %, as a plain number.

Check out these entries, answers already filled in.
**Q:** Can you look up activation on Thyrotropin-releasing hormone receptor (Homo sapiens) for O=C(NCCc1ccccc1)C(=O)NCC(c1ccco1)S(=O)(=O)c1ccccc1 (stereo not given) ?
**A:** -0.0493

**Q:** Another: O=C(NCc1ccc(Cl)cc1)c1ccc2c(c1)nnn2C1CCCC1
**A:** -0.129

**Q:** Another: Cn1c(=O)[nH]c(=O)c2c1[nH]c(=S)n2Cc1ccccc1
**A:** 0.0169

**Q:** Another: CCOC(=O)CC1C(=O)NCCN1c1nc2c(C)cccn2c(=O)c1/C=C1\SC(=S)N(C(C)CC)C1=O (stereo not given)
**A:** 52.4

Further cases:
**Q:** Can you look up activation on Thyrotropin-releasing hormone receptor (Homo sapiens) for C/C(=C/c1ccccc1)C(=O)N1CCN(c2ccccc2)CC1 ?
**A:** -0.0779

**Q:** Another: O=C(O)CCC(=O)Nc1ccc(N2CCOCC2)cc1
**A:** 0.0804

**Q:** Another: CCOC(=O)c1nnn(CC(=O)NC(=O)Nc2ccccc2F)c1C(=O)OCC
**A:** 1.07

**Q:** Another: O=C(/C=C/c1ccc(N2CCOCC2)cc1)c1ccccc1
**A:** 42.4

**Q:** Another: CCCN(CCC)c1nc2c(C)cccn2c(=O)c1/C=C1/SC(=S)N(Cc2ccco2)C1=O
**A:** 12

**Q:** Another: CCC(=O)Nc1ccc(C)cc1-c1nc2ccccc2n(Cc2ccccc2)c1=O
**A:** 0.131

* * *

Biological target: Thyrotropin-releasing hormone receptor (Homo sapiens)
Assay: qHTS for Small Molecule Agonists and Allosteric Enhancers of Human TRH Receptor: Primary Screen for Agonists. Further: 0% is about no effect.
Details: TRHR cells, calcium flux fluo-8, FDSS agonist mode; at 2 µM; hits give high values
The campaign covered roughly 360,000 compounds. About 650 (0.18%) were called active. The full list was thinned out, with actives kept by preference.
Quantity Name: activation (%)
Give the value, in units of %, as a plain number.

Check out these entries, answers already filled in.
**Q:** Endpoint output: activation of CCOC(=O)c1cccc(NC(=O)c2cc(CN3CCCC3)on2)c1 . Value?
**A:** 0.429

**Q:** Another: Cc1ccccc1NC(=O)CN1C(=O)C(C)(C)c2ccccc21
**A:** 0.364

**Q:** Another: CCc1ccc(-n2nnc(-c3nc(-c4ccccc4)no3)c2C)cc1
**A:** 0.119

**Q:** Another: CCc1ccccc1NC(=O)c1sc2nc3c(cc2c1N)CN(Cc1ccccc1)CC3
**A:** 0.215

**Q:** Another: COc1ccc(CNC(=O)Cn2nnc(-c3ccccc3F)n2)cc1
**A:** -0.359

**Q:** Another: COc1cccc(N2CCN(C(=O)CCCCCn3c(=O)[nH]c4ccccc4c3=O)CC2)c1
**A:** -0.437

Shifting focus to the compound that follows.
**Q:** Endpoint output: activation of O=C1CC(c2nnc(Cc3ccc(Cl)cc3)o2)CN1c1ccccc1 (configuration not stated) . Value?
**A:** -0.928
